# measurement.notes: Stat Signaling Pathway (AID 446);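 note: ME-180 cervical cancer cells given 40 pM IL-6 alongside compound; SIE-controlled beta-lactamase reporter measured as 460/530 nm FRET emission ratio; % is set by controls: 0 for no effect and ±100 for the full control effect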
# conditions: ME-180 (cervical carcinoma) SIE beta-lactamase reporter, IL-6 stimulated, 5 h; at 7.69 µM (top of the series) unless noted
# Procedure: NCGC Assay Overview: The IL-6/STAT signaling pathway was assayed in ME-180 cervical carcinoma cells by a beta-lactamase reporter gene controlled by a STAT Inducible Element (SIE). This reporter is induced by IL-6 at 40 pM AC50 and inhibited by the pan JAK inhibitor, 2-(1,1-Dimethylethyl)-9-fluoro-3,6-dihydro-7H-benz[h]-imidaz[4,5-f]isoquinolin-7-one, at approximately 10 nM AC50. Plated cells were incubated overnight and on the following day, stimulated with 40 pM IL-6 for 5 hrs. […]
Inconclusive results are not listed. Activity calls are given as the source filed them. Calls come from the whole dose curve; as a rule, active = well fitted curve in either direction with a large enough effect (not every such curve was filed as active); inconclusive = small, poorly fitted or top-dose-only effect, or another doubt; inactive = flat fitted curve, though single readings scatter.
quantity: activity, negative = inhibition

record.smiles: CCn1c2ccccc2c2nnc(NCCCO)nc21
quantity: activity, negative = inhibition
readout.value: 1% (inactive)
--
record.smiles: N#CCCn1c(=O)c(CCc2ccccc2)nc2cnc(Oc3ccccc3)nc21
quantity: activity, negative = inhibition
readout.value: -14.5% (inactive)
--
record.smiles: O=C(O)C1(C(=O)O)CCN(S(=O)(=O)c2ccccc2)CC1
quantity: activity, negative = inhibition
readout.value: 11.9% (inactive)
--
record.smiles: CN(C)CCn1c(CO)nc2c1c(=O)n(C)c(=O)n2C
quantity: activity, negative = inhibition
readout.value: 6.5% (inactive)
--
record.smiles: Cc1ccc(-c2nc(-c3nccc4ccccc34)oc2-c2ccccc2)cc1
quantity: activity, negative = inhibition
readout.value: 24.1% (inactive)
--
record.smiles: C[N+]1(NCC[N@@+]2(C)CCc3ccccc3C2)CCCCC1
quantity: activity, negative = inhibition
readout.value: 7.24% (inactive)
--
record.smiles: O=C(O)C1(Nc2ccc(Cl)cc2)CCCC1
quantity: activity, negative = inhibition
readout.value: 5.72% (inactive)
--
record.smiles: O=C(O)c1ccccc1N[C@H](c1ccccc1)c1ccc2cccnc2c1O
quantity: activity, negative = inhibition
readout.value: -21.5% (inactive)
--
record.smiles: N/N=C1/CC(=O)NC(=O)N1
quantity: activity, negative = inhibition
readout.value: -13% (inactive)
--
record.smiles: CN1CCN(c2ncc3nc(CCc4ccccc4)c(=O)n(CCC#N)c3n2)CC1
quantity: activity, negative = inhibition
readout.value: -3.93% (inactive)
--
record.smiles: O=C(O)/C=C\c1cnc[nH]1
quantity: activity, negative = inhibition
readout.value: 3.14% [at 38 µM] (inactive)
--
record.smiles: Nc1ncnc2nc[nH]c12.Nc1ncnc2nc[nH]c12.[Cl][Pt]([Cl])([Cl])[Cl]
quantity: activity, negative = inhibition
readout.value: -3.14% (inactive)
--
record.smiles: O=C(O)c1c[nH]c2cc(OCc3ccccc3)ccc2c1=O
quantity: activity, negative = inhibition
readout.value: -8.65% (inactive)
--
record.smiles: CCCCN1CSC(=S)N(Cc2ccccc2)C1
quantity: activity, negative = inhibition
readout.value: 2.92% (inactive)
--
record.smiles: O=C(O)[C@H](CCc1ccccc1)N1C(=O)c2ccccc2C1=O
quantity: activity, negative = inhibition
readout.value: 8.91% (inactive)
--
record.smiles: C=CCSc1nc2ccccc2c(=O)n1Cc1ccco1
quantity: activity, negative = inhibition
readout.value: -8.01% (inactive)
--
record.smiles: CN(C)CCCSc1nc2ccccc2[nH]1
quantity: activity, negative = inhibition
readout.value: 3.11% (inactive)
--
record.smiles: O=C(O)[C@H]1[C@H](C(=O)O)[C@H](C(=O)O)C[C@@H]1C(=O)O
quantity: activity, negative = inhibition
readout.value: 4.24% (inactive)
--
record.smiles: O=[N+]([O-])c1ccc(S(=O)(=O)Cc2ccccc2)c2nonc12
quantity: activity, negative = inhibition
readout.value: -2.97% (inactive)
--
record.smiles: O=[N+]([O-])/C=C\c1cc2ccccc2[nH]1
quantity: activity, negative = inhibition
readout.value: 23.3% (inactive)
--
record.smiles: O=c1c(CCc2ccccc2)nc2cnc(Oc3ccccc3)nc2n1C[C@H]1CCCO1
quantity: activity, negative = inhibition
readout.value: -18.9% (inactive)
--
record.smiles: CC(CO)(CO)N=Cc1cc(I)cc(I)c1O
quantity: activity, negative = inhibition
readout.value: -24.6% (inactive)
--
record.smiles: Nc1nc(=O)c2[nH]cnc2n1O
quantity: activity, negative = inhibition
readout.value: 7.15% (inactive)
--
record.smiles: COc1ccc2c(c1)N(CC[C@H]1CCCCN1C)c1ccccc1S2
quantity: activity, negative = inhibition
readout.value: -6.74% (inactive)
--
record.smiles: CN(C)C(=O)C1CCN(Cc2c[nH]c3ccccc23)CC1
quantity: activity, negative = inhibition
readout.value: -4.74% (inactive)
